Provenance of the data: PubChem BioAssay (NCI)

tested on: OVCAR-8 ovarian; experiment: NCI-60 one-dose screen, 48 h (100 = growth as untreated, 0 = no growth, -100 = all killed); details: 10 µM unless noted
This is part of a sample that, as a whole, favours compounds with a hit. Of some 83,000 tested, about 20% had one in any assay. Activity calls are given as the source filed them. How the source made its calls: active means growth percent below 10; inactive means the rest.
measureName: growth

Cc1ccc(-c2nc(C#N)c(S(=O)(=O)N(C)CCO)o2)cc1
67.4% (inactive)
O=Cc1[nH]c(Sc2ccccc2)c2ccccc12
68.6% (inactive)
CCCS(=O)(=O)Nc1ccc(F)c(C(=O)c2c[nH]c3ncc(-c4ccc(OCCCC5CCCCN5)nc4)cc23)c1F (configuration not stated)
88.9% (inactive)
COC(=O)/C=C/c1cc(OC)c2c(c1)[C@@H](C(=O)OC)[C@H](c1ccc(OC)c(OC)c1)O2
30.8% (inactive)
CC(C)(C)c1nc2c(s1)c1nc(N)ncc1c1ccc(NS(=O)(=O)c3c(F)cccc3F)c(F)c12
61.1% (inactive)

Problem: Can you look up the measured growth of O=C(Nc1cc(Br)ccn1)c1cc2cc(Nc3nc(-c4ccccc4)nc4ccccc34)ccc2oc1=O for me?
Solution: 103% (inactive)

Problem: Could you do the same for COc1ccc(-n2nc(C(=O)NCC(=O)O)nc2-c2ccccc2)cc1 , please?
Solution: 111% (inactive)

Problem: Could you do the same for COc1cc(C2CC(c3ccc(Nc4nc(NCCO)nc(NCCO)n4)cc3)=NN2c2cc(Cl)cc(Cl)c2)cc(OC)c1OC (configuration not stated) , please?
Solution: 11.9% (inactive)

Problem: Could you do the same for Nc1c(C(=O)c2ccccc2)sc2nc(-c3cc4ccccc4o3)cc(-c3ccc(Cl)cc3)c12 , please?
Solution: 95.8% (inactive)

Problem: Could you do the same for O=C(Nc1nccs1)c1noc2ccccc12 , please?
Solution: 94.7% (inactive)

---

system: UACC-62 melanoma; test: NCI-60 one-dose screen, 48 h; details: 10 µM unless noted
Compounds without any hit were thinned out: in the full panel of roughly 83,000, 20% have a hit. Activity calls are given as the source filed them. The calls were made as follows: active = growth percent below 10; inactive = the rest.
Reply using exactly one outcome from true (active), false (inactive)

COc1cc(C)ccc1Oc1nc(Nc2ccc(N3CCOCC3)cc2)ncc1N=Cc1cc(C(F)(F)F)cc(C(F)(F)F)c1
false
NC(=O)c1ccc(C2C3=C(CCCC3=O)OC3=C2C(=O)c2ccccc2C3=O)cc1 (centres undefined)
true
N#Cc1c(-c2ccc(F)cc2)c(C#N)c2c(C#N)c(N)nn2c1N
false
Cc1ccc(-c2nc(C#N)c(S(=O)(=O)N(C)CCO)o2)cc1
false
COc1cc(C(=O)Nc2cc(OC)c3ccn(C)c3c2)cc2c1C[C@]1(C)CC[C@@H](O)C(C)(C)[C@H]1O2
true

Problem: Query: recorded result category for O=C1C(=O)c2c(nc3ccc(C(F)(F)F)cn23)-c2ccccc21 in this test
Solution: true

Problem: Could you do the same for CCOC(=O)c1c(C)nc2c(c1N)/C(=C/c1ccccn1)C(=O)N2Cc1ccccc1 , please?
Solution: true

Problem: Could you do the same for c1cc(CNC23CC4CC(CC(C4)C2)C3)cc(C[N+](Cc2cccc(CNC34CC5CC(CC(C5)C3)C4)c2)(Cc2cccc(CNC34CC5CC(CC(C5)C3)C4)c2)Cc2cccc(CNC34CC5CC(CC(C5)C3)C4)c2)c1 (centres undefined) , please?
Solution: false

Problem: Could you do the same for O=CN1N=C(c2ccc3c(c2)OCO3)CC1c1cccc(Nc2ccnc3cc(C(F)(F)F)ccc23)c1 (centres undefined) , please?
Solution: false

Problem: Could you do the same for O=C(Nc1cc(Nc2ncccc2-c2ncnc3nc[nH]c23)ccc1F)c1cc(C(F)(F)F)cc(C(F)(F)F)c1 , please?
Solution: true

Problem: Could you do the same for C#C[C@@]1(O)[C@@H](CO)O[C@@H](n2cc(-c3ccco3)c3c(N)ncnc32)[C@@H]1O , please?
Solution: false

Problem: Could you do the same for c1ccc2c3c([nH]c2c1)C(c1ccc(C2NCCc4c2[nH]c2ccccc42)cc1)NCC3 (centres undefined) , please?
Solution: true
